The following are reported pIC50 results, target or system Prothrombin (Homo sapiens, UniProt P00734).
Scale note: pIC50 = -log10(concentration in M).

Param item = N=C(N)c1ccc(CNC(=O)[C@@H]2C[C@@H]3CCCC[C@@H]3N2C(=O)C(NC(=O)[C@H](O)Cc2ccccc2)C2CCCCC2)cc1 (some centres not stated) ; retrieve measured pIC50. 8.47

Request: CC(C)C[C@@H](NC(=O)[C@H](O)Cc1ccccc1)C(=O)N1[C@H](C(=O)NCCC2=CCN(C(=N)N)C2)C[C@@H]2CC[C@@H](O)C[C@@H]21 6.66

Request: CC[C@H](C)[C@@H](NC(=O)CCc1ccccc1)C(=O)N1[C@H](C(=O)NCc2ccc(C(=N)N)cc2)C[C@@H]2CCCC[C@@H]21 6.48

Request: CC(C)C[C@@H](NC(=O)[C@H](O)Cc1ccccc1)C(=O)N1[C@H](C(=O)NCCC2=CCN(C(=N)N)C2)C[C@@H]2CCCC[C@@H]21 6.92

Request: CO[C@H](CO)C(=O)N[C@@H](C(=O)N1[C@H](C(=O)NCCC2=CCN(C(=N)N)C2)C[C@@H]2C[C@H](O)[C@@H](O)C[C@@H]21)[C@@H](Cl)C(C)C 7.96

Request: CC[C@@H](C)[C@@H](NC(=O)[C@H](O)Cc1ccccc1)C(=O)N1CCC[C@H]1C(=O)NCc1ccc(C(=N)N)cc1 8.15

Request: CC[C@H](C)C(NC(=O)OC(C)(C)C)C(=O)N1[C@H](C(=O)NCc2ccc(C(=N)N)cc2)C[C@@H]2CCCC[C@@H]21 (single isomer, unassigned) 6.77
